System: RANKL-induced osteoclast differentiation of RAW264.7 cells
Experiment: Osteoclast differentiation inhibition experiment (RANKL-induced, TRAP staining)
Type: cell-based
Conditions: selective inhibition constant = CC50 (RAW264.7 cytotoxicity) / IC50 (osteoclast differentiation)
Provide the recorded Therapeutic index SI (CC50/IC50) for the entries that follow.
Write the value as a bare number.

Using known records, supply Therapeutic index SI (CC50/IC50) for CCOC(=O)c1sc(NC(=O)/C(=N/Nc2cccc(C(=O)O)c2)C(C)=O)nc1C [Compound 3]
1625

Supply measured Therapeutic index SI (CC50/IC50) of CC(=O)/C(=N\Nc1ccccc1C(=O)O)C(=O)NC1CCNCC1 [Compound 26] in your reply.
7

Using known records, supply Therapeutic index SI (CC50/IC50) for CCOC(=O)c1sc(NC(=O)/C(=N/Nc2cc(C(=O)O)ccc2C(=O)O)C(C)=O)nc1C [Compound 19]
20

Using the record for CCOC(=O)c1sc(NC(=O)/C(=N/Nc2ccc(N)cc2C(=O)O)C(C)=O)nc1C [Compound 20] , state its measured Therapeutic index SI (CC50/IC50).
40

Give the value of Therapeutic index SI (CC50/IC50) reported for the following: CC(=O)/C(=N\Nc1ccccc1C(=O)O)C(=O)N1CCc2ccccc2C1 [Compound 27]
15

Quote Therapeutic index SI (CC50/IC50) reported for CC(=O)/C(=N\Nc1ccccc1C(=O)O)C(=O)Nc1ccccc1 [Compound 24] please.
7

Identify the reported Therapeutic index SI (CC50/IC50) for the following entry. CCOC(=O)c1sc(NC(=O)/C(=N/Nc2c(C#N)cccc2C(=O)O)C(C)=O)nc1C [Compound 12]
1701

Indicate its recorded Therapeutic index SI (CC50/IC50); the compound in question is CCOC(=O)c1sc(NC(=O)/C(=N/Nc2ccccc2O)C(C)=O)nc1C [Compound 5]
21

Value source: patent US12252459B2
